Assay Method Text: Selectivity index, ratio of IC50 for rat L6 cells to IC50 for Trypanosoma brucei rhodesiense STIB900
Assay type: toxicity, cell-based
Setup Conditions: L6 cells (versus Trypanosoma brucei rhodesiense STIB900), read-out: Ratio IC50
Quick list: selectivity ratio per entry.
// no unit, no text: just the number

A selection of reference data follows.
INSERT INTO measurements (compound, data_value) VALUES
  ('CN1CCN(CC(=O)NC2CC3(N4CCN(C)CC4)CC(c4ccccc4)C2C(c2ccccc2)C3)CC1 (racemic)', 20.4),
  ('CN1CCN(CCCC(=O)OC2CC3(N(C)C)CC(c4ccccc4)C2C(c2ccccc2)C3)CC1 (racemic)', 248),
  ('CN1CCN(CCCC(=O)OC2CC3(N4CCCCC4)CC(c4ccccc4)C2C(c2ccccc2)C3)CC1 (racemic)', 139);

Turning now to a further record.
# query: selectivity ratio of entry CN1CCN(CCN2CCC3(N(C)C)CC(c4ccccc4)C2C(c2ccccc2)C3)CC1 (racemic)
5.19

* * *

Assay Method Text: Selectivity index, ratio of IC50 for rat L6 cells to IC50 for chloroquine and pyrimethamine-resistant Plasmodium falciparum K1
Type: toxicity, cell-based
Setup Conditions: L6 cells (versus Plasmodium falciparum K1), read-out: Ratio IC50
Observed Property: selectivity ratio
Lab note: jot down the number only; don't add units.

INSERT INTO assay_data (compound, observed_property, data_value) VALUES
  ('CN1CCN(CCCN2CCC3(N4CCCC4)CC(c4ccccc4)C2C(c2ccccc2)C3)CC1 (racemic)', 'selectivity ratio', 102),
  ('CN1CCN(CCC(=O)OC2CC3(N(C)C)CC(c4ccccc4)C2C(c2ccccc2)C3)CC1 (racemic)', 'selectivity ratio', 67.7),
  ('CN1CCN(CCCN2CCC3(N4CCCCC4)CC(c4ccccc4)C2C(c2ccccc2)C3)CC1 (racemic)', 'selectivity ratio', 568),
  ('CN1CCN(CCCN2CCC3(N4CCN(C)CC4)CC(c4ccccc4)C2C(c2ccccc2)C3)CC1 (racemic)', 'selectivity ratio', 191),
  ('CCN(CC)CCC(=O)OC1CC2(N(C)C)CC(c3ccccc3)C1C(c1ccccc1)C2 (stereo not drawn)', 'selectivity ratio', 54.9),
  ('CN1CCN(CCCC(=O)OC2CC3(N4CCCC4)CC(c4ccccc4)C2C(c2ccccc2)C3)CC1 (racemic)', 'selectivity ratio', 84.7),
  ('CN1CCN(CCCC(=O)OC2CC3(N4CCCCC4)CC(c4ccccc4)C2C(c2ccccc2)C3)CC1 (racemic)', 'selectivity ratio', 446);

Lab note: next compound to report on.
// query selectivity ratio value for entry CN1CCN(CCC(=O)N2CCC3(N4CCN(C)CC4)CC(c4ccccc4)C2C(c2ccccc2)C3)CC1 (racemic)
82.5
